All values here come from patent US20240262926A1.

Molecular target: T1, recombinant monkey TfR (r monkey TfR: Sino Biological Inc.) (cynomolgus monkey (Macaca fascicularis), UniProt Q5RDH6 89-760 (Pongo abelii entry))
T1 construct: Bought product; also called r monkey TfR-ECD (Histag); cynomolgus monkey TfR; not shown: histidine tag attached to the N-terminus
T1 chain: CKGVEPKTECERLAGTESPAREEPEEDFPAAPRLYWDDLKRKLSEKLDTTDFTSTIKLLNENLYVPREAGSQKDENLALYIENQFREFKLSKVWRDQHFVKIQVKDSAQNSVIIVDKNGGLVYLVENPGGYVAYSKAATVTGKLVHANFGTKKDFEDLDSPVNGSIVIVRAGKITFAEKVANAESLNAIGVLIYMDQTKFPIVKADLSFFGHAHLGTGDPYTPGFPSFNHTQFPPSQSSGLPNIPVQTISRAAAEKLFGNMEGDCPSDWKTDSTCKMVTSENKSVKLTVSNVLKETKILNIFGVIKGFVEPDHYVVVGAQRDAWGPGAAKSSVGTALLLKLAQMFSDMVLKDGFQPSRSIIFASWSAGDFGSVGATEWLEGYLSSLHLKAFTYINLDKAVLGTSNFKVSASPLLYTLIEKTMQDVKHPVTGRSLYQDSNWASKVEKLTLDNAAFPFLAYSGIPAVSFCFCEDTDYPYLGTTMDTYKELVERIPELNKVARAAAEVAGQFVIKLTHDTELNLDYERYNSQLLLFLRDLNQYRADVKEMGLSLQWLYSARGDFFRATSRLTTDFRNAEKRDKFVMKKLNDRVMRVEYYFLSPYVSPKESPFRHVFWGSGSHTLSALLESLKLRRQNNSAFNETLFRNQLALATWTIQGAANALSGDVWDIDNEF
Assay: BLI (Octet RED96), His-tagged TfR ECD loaded on Ni-NTA sensor, antibody as analyte
Measured Kd values are reported for all entries that follow.
Hi! Could you send only the number? It should be in nM, unit omitted.

For orientation, consider the following solved cases.
anti-hTfR antibody No. 5 (antibody, V domains shown, Mouse hybridoma antibody purified on Protein G; also called mouse anti-hTfR antibody No. 5; product of Clone 5 line) VH: EVQLQESGPELVKPGASVKMSCKASGYTFTNFVIHWVKQRPGQGLEWIGFFNPHKNGAEYNEKFQVKATLTSDKSSTTAYMELNSLTSEDSAVYYCARSFYYYSMDYWGQGTSVTVSS VL: DIVMTQTPAIMSASPGEKVTMTCSASSSISSIHWYQQKPGTSPKRWIYDTSTLASGVPVRFSGSGSGTSYSLTISSMEAEDAATYYCHQRSSYPTFGGGTKLEIK = 1.46
anti-hTfR antibody No. 11 (antibody, V domains shown, Mouse hybridoma antibody purified on Protein G; also called mouse anti-hTfR antibody No. 11; product of Clone 11 line) VH: EVQLQESGAELVRPGSSVKISCKASGYAFSIYWINWLKQRPGQGLEWIGQIYPGNGDTNYNGKFKGKATLTADKSSNTVYMRLSSLTSEDSAVYFCGRWGDDYAMDFWGQGTSVTVSS VL: DIVLTQSPATLSVTPGDRVSLSCRASQSIRNYLHWYQQKSHESPRLLIKYASQSISGIPSRFSGSGSGTDFTLSINSVETEDFGMYFCQQTNSWPYTFGGGTKLEIK = 3.38
anti-hTfR antibody No. 14 (antibody, V domains shown, Mouse hybridoma antibody purified on Protein G; also called mouse anti-hTfR antibody No. 14; product of Clone 14 line) VH: EVQLQESGPELLKPGASVKMSCKASGYAFTGYVIHWVKQKPGQGLEWIGFLNPHKDDSEYNEKFRGKATLTSDKSSSTAYMDLSSLTSEDSAVYYCARGYYYYSMDYWGQGTSVTVSS VL: DIVLTQTPVIMSAYPGEKVTLTCSASSNINSIHWYQQKPGTSPKRWIYDTSNLASGVPARFSGSGSGTSYSLTISSMEAEDAASYYCHQRSGYPFTFGSGTKLEIK = 0.0516
anti-hTfR antibody No. 10 (antibody, V domains shown, Mouse hybridoma antibody purified on Protein G; also called mouse anti-hTfR antibody No. 10; product of Clone 10 line) VH: EVQLQESGGGLVKPGGSLKLSCEASGITFRNYAMSWVRQTPEKRLEWVATISSYGGYTYYADSVKGRFTVSRDNAGNTLYLQMSSLRSEDTAMYHCARQEVPYPYPMDNWGQGTSVIVSS VL: DIVMTQTPSSLSASLGERVSLTCRPSQEISGYLSWLQQKPDGTIKRLIYAASTLDSGVPKRFSGSRSGSDYSLTISSLESEDFADYYCLQYASYPRTFGGGTKLEIK = 31.6

// Kd lookup, key: anti-hTfR antibody No. 4 (antibody, V domains shown, Mouse hybridoma antibody purified on Protein G; also called mouse anti-hTfR antibody No. 4; product of Clone 4 line) VH: EVQLQESGAELVRPGTSVRVFCKASGYAFTNYLIEWVKQRPGQGLEWIGLINPGSGGIIYNEKFTDRATLTADKSSSTAYMQLSSLTSDDSAVYFCARSNYYGTTYWHFDVWGAGTTVTVSS VL: DIVLTQTPAIMSASPGEKVTMTCSASSNVNYMHWYQQKSSTSPKLWIYDTSKLASGVPGRFSGSGSGNSYSLTISSMEAEDVATYYCFQGNGNPYTFGGGTKLEIK
0.161
